Target: human CD33 P46R (human, UniProt P20138 18-364)
Sequence (P20138 18-364 P46R limits assumed): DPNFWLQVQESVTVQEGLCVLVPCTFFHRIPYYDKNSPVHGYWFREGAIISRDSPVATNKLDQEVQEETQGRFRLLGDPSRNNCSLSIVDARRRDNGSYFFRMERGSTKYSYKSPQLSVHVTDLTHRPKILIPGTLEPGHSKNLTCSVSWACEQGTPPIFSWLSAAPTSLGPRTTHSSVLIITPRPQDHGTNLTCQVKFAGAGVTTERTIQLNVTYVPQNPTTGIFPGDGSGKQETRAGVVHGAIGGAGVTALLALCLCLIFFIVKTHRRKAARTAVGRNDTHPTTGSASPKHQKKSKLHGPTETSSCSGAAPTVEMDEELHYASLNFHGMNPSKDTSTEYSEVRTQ
Assay: flow cytometry, mutant on cells, IgG
recorded metric: Mean % WT Binding (% WT binding)
Report only the number, with the unit % WT binding understood.

Sure, the documented Mean % WT Binding for Refmab #4 (antibody, human IgG1, V domains shown, Tested in IgG format; human IgG1 Fc silent (PG-LALA)) VH: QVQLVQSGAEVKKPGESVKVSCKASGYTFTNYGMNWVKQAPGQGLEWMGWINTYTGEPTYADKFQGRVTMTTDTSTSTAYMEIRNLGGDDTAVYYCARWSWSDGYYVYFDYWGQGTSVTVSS VL: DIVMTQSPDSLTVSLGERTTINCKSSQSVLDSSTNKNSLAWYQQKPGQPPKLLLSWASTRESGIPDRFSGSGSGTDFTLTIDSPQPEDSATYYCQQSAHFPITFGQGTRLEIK is 106
